# assay_text: Pharmacokinetics in Male Cynomolgus Monkeys
# Format: in vivo
# reported_conditions: cynomolgus monkey, 10 mg/kg PO, plasma, mean (Table 12)
measure: Cmax
I'd appreciate it if you included the unit after the number.

Ask: If you can, please state the reported Cmax value of CC(C)Oc1cc2nc([C@H]3CC[C@H](CN4CCC(c5ccc6c(c5)n(C)c(=O)n6C5CCC(=O)NC5=O)CC4)CC3)cn2cc1C(=O)Nc1cccn([C@H]2C[C@H]2F)c1=O (stereo partly shown) .
Reply: 101 ng/mL

###

# assay_target: IRAK4 (Homo sapiens)
# Construct: 293Tcells expressing HiBiT-tagged IRAK4 were then added into 384-well plates
# Sequence (Q9NWZ3 whole entry): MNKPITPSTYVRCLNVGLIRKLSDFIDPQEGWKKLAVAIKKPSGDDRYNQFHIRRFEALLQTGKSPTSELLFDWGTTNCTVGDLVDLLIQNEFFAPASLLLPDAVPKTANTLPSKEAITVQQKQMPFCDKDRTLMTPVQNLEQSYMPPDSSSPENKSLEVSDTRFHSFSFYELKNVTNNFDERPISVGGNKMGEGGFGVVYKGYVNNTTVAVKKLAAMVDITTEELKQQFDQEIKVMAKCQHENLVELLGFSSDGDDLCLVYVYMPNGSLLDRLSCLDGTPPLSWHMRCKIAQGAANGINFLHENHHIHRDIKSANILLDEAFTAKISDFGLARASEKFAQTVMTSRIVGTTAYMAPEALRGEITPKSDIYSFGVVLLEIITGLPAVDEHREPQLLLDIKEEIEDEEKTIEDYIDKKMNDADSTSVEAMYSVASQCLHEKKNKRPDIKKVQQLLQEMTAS
# assay_text: IRAK4 Degradation Assay, HiBiT Method
# Assay type: cell-based
# reported_conditions: 293T cells expressing HiBiT-tagged IRAK4, 6 hours
measure: DC50

These recorded examples may help you get a feel for the data.
molecule | assay_target | DC50
CO[C@H]1CN(C[C@H]2CC[C@H](n3cc4cc(C(=O)Nc5cccn(C6CC6)c5=O)c(OC(C)C)cc4n3)CC2)CC[C@H]1c1ccc2c(N3CCC(=O)NC3=O)nn(C)c2c1 [Example 140] | IRAK4 (Homo sapiens) | < 10 nM
CC(C)Oc1cc2nc([C@H]3CC[C@H](CN4CCC(c5ccc6c(c5)n(C)c(=O)n6C5CCC(=O)NC5=O)C(F)(F)C4)CC3)cn2cc1C(=O)Nc1cccn([C@H]2C[C@H]2F)c1=O (some centres unmarked) [Example 168] | IRAK4 (Homo sapiens) | 10 to 100 nM
CC(C)Oc1cc2nn(C3CCN(C(=O)OC4CCN(c5ncc(C6CCC(=O)NC6=O)cc5F)CC4)CC3)cc2cc1C(=O)Nc1cccn([C@H]2C[C@H]2F)c1=O (some centres unmarked) [Example 156] | IRAK4 (Homo sapiens) | 10 to 100 nM
CC(C)Oc1cc2nc([C@H]3CC[C@H](CN(C)C4CCN(Cc5ccc(NC6CCC(=O)NC6=O)cc5)CC4)CC3)cn2cc1C(=O)Nc1cccc(C(F)F)n1 (some centres unmarked) [Example 32] | IRAK4 (Homo sapiens) | 100 to 500 nM
CC(C)Oc1cc2nc(C3CCN(C(=O)CC4(O)CCN(c5ccc(NC6CCC(=O)NC6=O)cc5Cl)CC4)CC3)cn2cc1C(=O)Nc1cccc(C(F)F)n1 (centres unmarked) [Example 73] | IRAK4 (Homo sapiens) | < 10 nM
CC(C)Oc1cc2nn([C@H]3CC[C@H](CN4CCC(c5ccc(O[C@H]6CCC(=O)NC6=O)cc5)CC4)CC3)cc2cc1C(=O)Nc1cccn(C2CC2)c1=O (single isomer, unassigned) [Example 142] | IRAK4 (Homo sapiens) | < 10 nM
CC(C)Oc1cc2nc([C@H]3CC[C@H](CN(C)C4CCN(c5ccc6c(c5)n(C)c(=O)n6C5CCC(=O)NC5=O)CC4)CC3)cn2cc1C(=O)Nc1cccc(C(F)F)n1 (some centres unmarked) [Example 27] | IRAK4 (Homo sapiens) | 10 to 100 nM
CC(C)Oc1cc2nc(C3CCN(C(=O)CC4CCN(c5ncc(C6CCC(=O)NC6=O)cc5F)CC4)CC3)cn2cc1C(=O)Nc1cnn2cccnc12 (centres unmarked) [Example 162] | IRAK4 (Homo sapiens) | 10 to 100 nM

Ask: If you can, please state the reported DC50 value of CC(C)Oc1cc2nc([C@H]3CC[C@H](C(=O)NC4CCN(c5ccc(C6CCC(=O)NC6=O)cn5)CC4)CC3)cn2cc1C(=O)Nc1cnn2cccnc12 (some centres unmarked) [Example 182] .
Reply: < 10 nM

Ask: Next record, please: CC(C)Oc1cc2nn([C@H]3CC[C@H](CN4CC[C@H](c5ccc6c(N7CCC(=O)NC7=O)nn(C)c6c5)[C@H](O)C4)CC3)cc2cc1C(=O)Nc1cccn(C2C[C@H]2F)c1=O (some centres unmarked) [Example 116]
Reply: < 10 nM

Ask: Next record, please: CC(C)Oc1cc2nc([C@H]3CC[C@H](CN(C)C4CCN(c5cccc(C6CCC(=O)NC6=O)c5)CC4)CC3)cn2cc1C(=O)Nc1cccc(C(F)(F)F)n1 (some centres unmarked) [Example 11]
Reply: 10 to 100 nM

###

# assay_target: IRAK4 (Homo sapiens)
# Construct: 293Tcells expressing HiBiT-tagged IRAK4 were then added into 384-well plates
# assay_text: IRAK4 Degradation Assay, HiBiT Method
# Type: cell-based
# reported_conditions: 293T cells expressing HiBiT-tagged IRAK4, 6 hours
measure: DC50

These recorded examples may help you get a feel for the data.
compound | assay_target | DC50
CC(C)Oc1cc2nc([C@H]3CC[C@H](CNCC4(O)CCN(c5ncc(C6CCC(=O)NC6=O)cc5F)CC4)CC3)cn2cc1C(=O)Nc1cnn2cccnc12 (stereo partly drawn) [Example 176] | IRAK4 (Homo sapiens) | < 10 nM
CC(C)Oc1cc2nc([C@H]3CC[C@H](CN4CC[C@H](c5ccc6c(N7CCC(=O)NC7=O)nn(C)c6c5)[C@H](O)C4)CC3)cn2cc1C(=O)Nc1cccn([C@H]2C[C@H]2F)c1=O [Example 171] | IRAK4 (Homo sapiens) | < 10 nM

Ask: If you can, please state the reported DC50 value of CC(C)Oc1cc2nc(C3CCN(CC(=O)N4CCC(c5ccc(C6(F)CCC(=O)NC6=O)cc5)CC4)CC3)cn2cc1C(=O)Nc1ccn(C)n1 (stereo not drawn) [Example 102] .
Reply: 10 to 100 nM

###

# assay_text: Pharmacokinetics (PK) in Male Beagle Dogs
# Assay type: in vivo
# reported_conditions: dog, 5 mg/kg IV, plasma, mean
measure: clearance
I'd appreciate it if you included the unit after the number.

Ask: If you can, please state the reported clearance value of CC(C)Oc1cc2nc([C@H]3CC[C@H](CN4CCC(c5ccc6c(c5)n(C)c(=O)n6C5CCC(=O)NC5=O)CC4)CC3)cn2cc1C(=O)Nc1cnn2cccnc12 (stereo partly shown) .
Reply: 46.3 mL/min/kg

###

# assay_target: IRAK4 (Homo sapiens)
# Construct: 293Tcells expressing HiBiT-tagged IRAK4 were then added into 384-well plates
# assay_text: IRAK4 Degradation Assay, HiBiT Method
# Type: cell-based
# reported_conditions: 293T cells expressing HiBiT-tagged IRAK4, 6 hours
measure: DC50

molecule | result
CC(C)Oc1cc2nc([C@H]3CC[C@H](CN4CCC(c5ccc6c(c5)oc(=O)n6C5CCC(=O)NC5=O)CC4)CC3)cn2cc1C(=O)Nc1cccn([C@H]2C[C@H]2F)c1=O (stereo partly drawn) [Example 175] | < 10 nM

Ask: If you can, please state the reported DC50 value of CC(C)Oc1cc2nc(C3CCN(C(=O)CC4(O)CCN(c5ccc(NC6CCC(=O)NC6=O)cc5)CC4)CC3)cn2cc1C(=O)Nc1cccc(C(F)(F)F)n1 (stereo not drawn) [Example 72] .
Reply: 10 to 100 nM

Ask: Next record, please: CC(C)Oc1cc2nn([C@H]3CC[C@H](CN4CCOC[C@@H]4Cc4ccc(OC5CCC(=O)NC5=O)cc4)CC3)cc2cc1C(=O)Nc1cnn2cccnc12 (stereo partly drawn) [Example 131]
Reply: 10 to 100 nM

###

# assay_text: Pharmacokinetics (PK) in Male Beagle Dogs
# Format: in vivo
# reported_conditions: dog, 10 mg/kg PO, plasma, mean (Table 6)
measure: AUC(0-t) (ng·h/mL)
Kindly answer with a numeric value in ng·h/mL, unit omitted.

Ask: If you can, please state the reported AUC(0-t) value of CC(C)Oc1cc2nc([C@H]3CC[C@H](CN4CCC(c5ccc6c(c5)n(C)c(=O)n6C5CCC(=O)NC5=O)CC4)CC3)cn2cc1C(=O)Nc1cccn([C@H]2C[C@H]2F)c1=O (stereo partly shown) .
Reply: 472

###

# assay_text: Pharmacokinetics in Male Cynomolgus Monkeys
# Type: in vivo
# reported_conditions: cynomolgus monkey, 5 mg/kg IV, plasma, mean (Table 11)
measure: C0

Ask: If you can, please state the reported C0 value of CC(C)Oc1cc2nc([C@H]3CC[C@H](CN4CCC(c5ccc6c(c5)n(C)c(=O)n6C5CCC(=O)NC5=O)CC4)CC3)cn2cc1C(=O)Nc1cccn([C@H]2C[C@H]2F)c1=O (stereo partly shown) .
Reply: 10300 ng/mL

###

# assay_text: Pharmacokinetics (PK) in Male Beagle Dogs
# Format: in vivo
# reported_conditions: dog, 5 mg/kg IV, plasma, mean (Table 5)
measure: C0 (ng/mL)
Kindly answer with a numeric value in ng/mL, unit omitted.

Ask: If you can, please state the reported C0 value of CC(C)Oc1cc2nc([C@H]3CC[C@H](CN4CCC(c5ccc6c(c5)n(C)c(=O)n6C5CCC(=O)NC5=O)CC4)CC3)cn2cc1C(=O)Nc1cccn([C@H]2C[C@H]2F)c1=O (stereo partly shown) [Compound 169] .
Reply: 3160

###

# assay_text: Pharmacokinetics in Male Cynomolgus Monkeys
# Assay type: in vivo
# reported_conditions: cynomolgus monkey, 10 mg/kg PO, plasma, mean (Table 12)
# Procedure: Assay 5. Pharmacokinetics in Male Cynomolgus Monkeys The pharmacokinetic (PK) profile in plasma of two compounds of the present invention was determined in male cynomolgus monkeys following single dose IV (5 mg/kg) and PO (10 mg/kg) administration. […] Male cynomolgus monkeys, non-naïve, are acceptable species to support PK studies for compounds intended for use in humans. […] RO water was analyzed every three months and every batch of feed was analyzed before using. […]
measure: AUC(0-t) (ng·h/mL)
Kindly answer with a numeric value in ng·h/mL, unit omitted.

Ask: If you can, please state the reported AUC(0-t) value of CC(C)Oc1cc2nc([C@H]3CC[C@H](CN4CCC(c5ccc6c(c5)n(C)c(=O)n6C5CCC(=O)NC5=O)CC4)CC3)cn2cc1C(=O)Nc1cccn([C@H]2C[C@H]2F)c1=O (stereo partly shown) .
Reply: 1020
